# assay.explanation: NCI Yeast Anticancer Drug Screen. Data for the cln2 rad14 strain (AID 165)
# experimental.conditions: S. cerevisiae cln2 rad14 strain, at 50.0 µM, active compounds read high
# Method: Growth inhibition of yeast strains with defined genetic alterations is measured as a screen for potential anti-cancer activity. Selected strains with alterations in DNA damage repair or cell cycle control were exposed to compounds and growth inhibition was measured relative to vehicle treated controls. The strain used in this assay is cln2 rad14
About 79,000 compounds went through this panel and 15% of them were active in at least one assay; those are over-represented in the sample as a whole.
Given measured growth inhibition, output true if it is greater than or equal to 80% and false if not.

[
  {
    "compound": "[Au+].[Au+].[Au+].[c-]1nccn1Cc1ccccc1.[c-]1nccn1Cc1ccccc1.[c-]1nccn1Cc1ccccc1",
    "cat": "true"
  },
  {
    "compound": "N#CC(C#N)=Cc1ccc(Cl)o1",
    "cat": "false"
  },
  {
    "compound": "CC1(C)CC(O)CC(C)(C)N1O",
    "cat": "false"
  },
  {
    "compound": "O=C(Oc1ccc(S(=O)(=O)F)cc1F)c1ccccc1Cl",
    "cat": "true"
  },
  {
    "compound": "COc1ccc(C(OCC2OC(n3ccc(NC(=O)c4ccccc4)nc3=O)CC2OP2(=S)SCCS2)(c2ccccc2)c2ccc(OC)cc2)cc1 (stereo not drawn)",
    "cat": "false"
  }
]

Quick check, growth inhibition >= 80%? CCN1CC2(CO)CCC(OC)C34C5CC6C(OC)CC(O)(C5C6OC)C(O)(C(OC)C23)C14 (stereo not drawn) false

Hello, I need to know if O=[N+]([O-])c1c[c]([Hg][Cl])c(O)[c]([Hg][Cl])c1 has measured growth inhibition not below 80%. Thanks! true

growth inhibition >= 80% for N#CC(C#N)=NNc1cccc(Cl)c1Cl ? true

Reported growth inhibition at or above 80%? NC(CCl)=NC1CN2CCC1CC2 (stereo not drawn) false

Answer whether growth inhibition of O=[P+](O)c1cc2ccccc2c2ccccc12 is greater than or equal to 80%. false

Please indicate if the recorded growth inhibition for CC(C)CC(NC=O)C(=O)NC(Cc1ccccc1)NC(=O)CNC(=O)C(C)NC(=O)C(N)Cc1ccc(O)cc1 (stereo not drawn) meets or exceeds 80%. false

Does CCOP(=O)(N=S=O)OCC have a reported growth inhibition of at least 80%? false

Determine whether this compound has growth inhibition no lower than 80%: O=C1NC(=O)C(F)C(O)N1 (stereo not drawn) false

Decide: growth inhibition of N#CC(c1ccccc1)c1ccccc1 >= 80%? false

Answer whether growth inhibition of [CH3][Sn]([CH3])([CH3])[S]C(=S)N1CCOCC1 is greater than or equal to 80%. true

Could you verify whether the entry CCC(C)C1NC(=O)C2CCCN2C(=O)C(CC2CO2)OC(=O)CCNC(=O)C(C)N(C)C(=O)C(C(C)C)N(C)C1=O (stereo not drawn) shows growth inhibition of no less than 80%? false

Could you verify whether the entry CN(CCCl)Cc1ccc(OCc2ccccc2)c(OCc2ccccc2)c1 shows growth inhibition of no less than 80%? true

Hi team, for O=C(O)C(Br)C(Br)C(=O)O.[Ag] (stereo not drawn) , is the recorded growth inhibition at or above 80%? true

Is it the case that CN1CC=C(c2cccn2C)CC1 has growth inhibition reaching or exceeding 80%? false

Reference for the values: PubChem BioAssay (NCI)
